# assay_system: MIF (Homo sapiens)
# Sequence (P14174 1-115): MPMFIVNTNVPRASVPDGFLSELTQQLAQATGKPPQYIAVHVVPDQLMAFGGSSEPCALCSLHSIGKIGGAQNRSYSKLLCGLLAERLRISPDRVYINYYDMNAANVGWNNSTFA
# test_summary: Nuclease assay of Example 3 (MIF inhibitory activity, Table 4)
# Type: biochemical
# Design: concentration or dose not given beside the values
# experimental_conditions: nuclease assay of Example 3
Decision: (%) inhibition of MIF nuclease activity >= 50% yields Criterion met, all other cases yield Criterion not met.

Task: Quick check: does COc1ccc(CC[C@H]2OC(=O)[C@@H]3CCCCN3C(=O)C(=O)C(C)(C)COC(=O)C=CCCN(C)C(=O)[C@@H]3CCCN3C(=O)[C@H](Cc3ccccc3)N(C)C(=O)[C@@H](C)NC(=O)CN(C)C(=O)COc3cccc2c3)cc1OC have (%) inhibition of MIF nuclease activity greater than or equal to 50%?
Result: Criterion not met

Task: Quick check: does COc1ccc(CC[C@H]2OC(=O)[C@@H]3CCCCN3C(=O)C(=O)C(C)(C)COC(=O)C=CCCN(C)C(=O)[C@@H]3CC(O)CN3C(=O)[C@H](COC(C)(C)C)N(C)C(=O)C(c3ccccc3)NC(=O)[C@H](C)N(C)C(=O)COc3cccc2c3)cc1OC (stereo partly drawn) have (%) inhibition of MIF nuclease activity greater than or equal to 50%?
Result: Criterion not met

Task: Quick check: does COc1ccc(CC[C@H]2OC(=O)[C@@H]3CCCCN3C(=O)C(=O)C(C)(C)COC(=O)C=CCCN(C)C(=O)[C@H](CC3CCCCC3)NC(=O)[C@H](COC(C)(C)C)N(C)C(=O)[C@@H](Cc3ccc4ccccc4c3)NC(=O)[C@H](C)N(C)C(=O)COc3cccc2c3)cc1OC have (%) inhibition of MIF nuclease activity greater than or equal to 50%?
Result: Criterion met

Task: Quick check: does COc1ccc(CC[C@H]2OC(=O)[C@@H]3CCCCN3C(=O)C(=O)C(C)(C)COC(=O)C=CCCN(C)C(=O)[C@@H]3CCCN3C(=O)[C@H](COC(C)(C)C)N(C)C(=O)[C@H](Cc3ccc(C#N)cc3)NC(=O)[C@H](C)NC(=O)COc3cccc2c3)cc1OC have (%) inhibition of MIF nuclease activity greater than or equal to 50%?
Result: Criterion not met

Task: Quick check: does COc1ccc(CC[C@H]2OC(=O)[C@@H]3CCCCN3C(=O)C(=O)C(C)(C)COC(=O)C=CCCN(C)C(=O)[C@@H]3CCCN3C(=O)[C@H](COC(C)(C)C)N(C)C(=O)[C@@H](c3ccccc3)NC(=O)[C@H](C)N(C)C(=O)COc3cc(F)cc2c3)cc1OC (racemic) have (%) inhibition of MIF nuclease activity greater than or equal to 50%?
Result: Criterion met

Task: Quick check: does COc1ccc(CC[C@H]2OC(=O)[C@@H]3CCCCN3C(=O)C(=O)C(C)(C)COC(=O)C=CCCN(C)C(=O)[C@@H]3CCCN3C(=O)[C@H](COC(C)(C)C)N(C)C(=O)C(c3ccccc3)NC(=O)[C@H](C)N(C)C(=O)COc3cccc2c3F)cc1OC (stereo partly drawn) have (%) inhibition of MIF nuclease activity greater than or equal to 50%?
Result: Criterion not met

Task: Quick check: does COc1ccc(CC[C@H]2OC(=O)[C@@H]3CCCCN3C(=O)C(=O)C(C)(C)COC(=O)C=CCCN(C)C(=O)[C@@H]3CCCN3C(=O)[C@H](COC(C)(C)C)N(C)C(=O)C(c3ccccc3)NC(=O)CN(C)C(=O)COc3cccc2c3)cc1OC (stereo partly drawn) [compound 41] have (%) inhibition of MIF nuclease activity greater than or equal to 50%?
Result: Criterion met

Task: Quick check: does COc1ccc(CC[C@H]2OC(=O)[C@@H]3CCCCN3C(=O)C(=O)C(C)(C)COC(=O)C=CCCN(C)C(=O)[C@H](CC3CCCCC3)NC(=O)[C@H](Cc3ccccc3)N(C)C(=O)[C@@H](C)NC(=O)CN(C)C(=O)COc3cccc2c3)cc1OC have (%) inhibition of MIF nuclease activity greater than or equal to 50%?
Result: Criterion not met

Task: Quick check: does COc1ccc(CC[C@H]2OC(=O)[C@@H]3CCCCN3C(=O)C(=O)C(C)(C)COC(=O)C=CCCN(C)C(=O)[C@@H]3CCCN3C(=O)[C@H](COC(C)(C)C)N(C)C(=O)C(c3ccccc3)NC(=O)[C@H](C)N(C)C(=O)COc3cccc2c3)cc1OC (stereo partly drawn) [compound 152] have (%) inhibition of MIF nuclease activity greater than or equal to 50%?
Result: Criterion not met

Task: Quick check: does COc1ccc(CC[C@H]2OC(=O)[C@@H]3CN(C(=O)OCC4c5ccccc5-c5ccccc54)CCN3C(=O)C(=O)C(C)(C)COC(=O)C=CCCN(C)C(=O)[C@@H]3CCCN3C(=O)[C@H](COC(C)(C)C)N(C)C(=O)C(c3ccccc3)NC(=O)[C@H](C)N(C)C(=O)COc3cccc2c3)cc1OC (stereo partly drawn) have (%) inhibition of MIF nuclease activity greater than or equal to 50%?
Result: Criterion not met

Task: Quick check: does COCC[C@@H]1NC(=O)[C@H](COC(C)(C)C)N(C)C(=O)C(c2ccccc2)NC(=O)[C@H](C)N(C)C(=O)COc2cccc(c2)[C@@H](CCc2ccc(OC)c(OC)c2)OC(=O)[C@@H]2CCCCN2C(=O)C(=O)C(C)(C)COC(=O)C=CCCN(C)C1=O (stereo partly drawn) have (%) inhibition of MIF nuclease activity greater than or equal to 50%?
Result: Criterion not met

Task: Quick check: does COc1ccc(CC[C@H]2OC(=O)[C@@H]3CCCCN3C(=O)C(=O)C(C)(C)COC(=O)C=CCCN(C)C(=O)[C@H](C(C)C)NC(=O)[C@H](COC(C)(C)C)N(C)C(=O)C(c3ccccc3)NC(=O)[C@H](C)N(C)C(=O)COc3cccc2c3)cc1OC (stereo partly drawn) have (%) inhibition of MIF nuclease activity greater than or equal to 50%?
Result: Criterion not met

Task: Quick check: does COc1ccc(CC[C@H]2OC(=O)[C@@H]3CCCCN3C(=O)C(=O)C(C)(C)COC(=O)C=CCCN(C)C(=O)[C@H](C)NC(=O)[C@H](COC(C)(C)C)N(C)C(=O)C(c3ccccc3)NC(=O)[C@H](C)N(C)C(=O)COc3cccc2c3)cc1OC (stereo partly drawn) have (%) inhibition of MIF nuclease activity greater than or equal to 50%?
Result: Criterion met

Task: Quick check: does COc1ccc(CC[C@H]2OC(=O)[C@@H]3CCCCN3C(=O)C(=O)C(C)(C)COC(=O)C=CCCN(C)C(=O)[C@H](Cc3ccc(F)cc3)NC(=O)[C@H](COC(C)(C)C)N(C)C(=O)C(c3ccccc3)NC(=O)CN(C)C(=O)COc3cccc2c3)cc1OC (stereo partly drawn) have (%) inhibition of MIF nuclease activity greater than or equal to 50%?
Result: Criterion not met

Task: Quick check: does COc1ccc(CC[C@H]2OC(=O)[C@@H]3CCCCN3C(=O)C(=O)C(C)(C)COC(=O)C=CCCN(C)C(=O)[C@H](C)NC(=O)[C@H](C(C)C)N(C)C(=O)[C@@H](Cc3ccccc3)NC(=O)[C@H](CC(C)C)N(C)C(=O)CCC(=O)Nc3cccc2c3)cc1OC have (%) inhibition of MIF nuclease activity greater than or equal to 50%?
Result: Criterion met
